// reported IC50 for each item listed
# MEASUREMENT TARGET: human β-Secretase (soluble part, AA1-AA460; sBACE-Fc) (Homo sapiens, UniProt P56817)
# Construct: The soluble part of the human β-Secretase (AA1-AA460) was cloned into the ASP2-Fc10-1-IRES-GFP-neoK mammalian expression vector; made in house
# Sequence (P56817 22-460): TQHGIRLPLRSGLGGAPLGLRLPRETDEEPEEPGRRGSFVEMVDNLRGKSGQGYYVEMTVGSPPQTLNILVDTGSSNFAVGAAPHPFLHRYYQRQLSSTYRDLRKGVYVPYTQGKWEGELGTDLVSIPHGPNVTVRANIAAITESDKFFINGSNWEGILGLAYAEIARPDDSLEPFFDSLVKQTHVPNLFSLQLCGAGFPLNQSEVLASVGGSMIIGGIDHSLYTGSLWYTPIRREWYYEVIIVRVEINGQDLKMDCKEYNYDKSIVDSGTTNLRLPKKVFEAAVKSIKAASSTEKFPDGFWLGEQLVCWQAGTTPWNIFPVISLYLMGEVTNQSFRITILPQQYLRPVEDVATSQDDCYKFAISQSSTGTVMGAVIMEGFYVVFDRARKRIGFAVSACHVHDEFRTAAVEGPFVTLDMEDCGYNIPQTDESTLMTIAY
# MEASUREMENT PROTOCOL: TR-FRET assay
# Assay type: biochemical
# CONDITION SUMMARY: substrate (Europium)CEVNLDAEFK(Qsy7) 100 nM, pH 4.5, 15 min at RT; read-out: IC50 (nM) in TR-FRET assay
Structures can show the parent of a compound that is named as a salt.
MEASURE NAME: IC50 (nM)

CN1C(=O)C(c2cccc(OS(=O)(=O)c3ccccc3)c2)(c2ccc(F)c(-c3cncnc3)c2)N=C1N (stereo not shown) [Example 133, benzenesulfonate hydrochloride]; 33
CN1C(=O)C(c2ccc(OS(C)(=O)=O)cc2)(c2ccc(F)c(C3CCCCC3)c2)N=C1N (stereo not shown); 410
CN1C(=O)C(c2cccc(OS(=O)(=O)N(C)C)c2)(c2ccc(F)c(-c3cc(Cl)cc(Cl)c3)c2)N=C1N (stereo not shown); 121
COc1cc(OS(C)(=O)=O)cc(-c2cccc(C3(c4ccc(OC(F)F)cc4)N=C(N)N(C)C3=O)c2)c1 (stereo not shown); 18

* * *

# MEASUREMENT TARGET: human β-Secretase (soluble part, AA1-AA460; sBACE-Fc) (Homo sapiens, UniProt P56817)
# Construct: The soluble part of the human β-Secretase (AA1-AA460) was cloned into the ASP2-Fc10-1-IRES-GFP-neoK mammalian expression vector; made in house
# MEASUREMENT PROTOCOL: TR-FRET assay
# Format: biochemical
# CONDITION SUMMARY: substrate (Europium)CEVNLDAEFK(Qsy7) 100 nM, pH 4.5, 15 min at RT; read-out: IC50 (nM) in TR-FRET assay
# Excerpt: The enzyme used in the IGEN Cleavage-, Fluorescent-, TR-FRET- and BiaCore assays is described as follows: The soluble part of the human β-Secretase (AA1-AA460) was cloned into the ASP2-Fc10-1-IRES-GFP-neoK mammalian expression vector. The gene was fused to the Fc domain of IgG1 (affinity tag) and stably cloned into HEK 293 cells. Purified sBACE-Fc is stored in Tris buffer, pH 9.2 and has a purity of 95%. […]
Structures can show the parent of a compound that is named as a salt.
Overview of reported IC50 across a group of molecules:
MEASURE NAME: IC50

CN1C(=O)C(c2cccc(OS(=O)(=O)c3ccc4c(c3)CCC4)c2)(c2ccc(F)c(Br)c2)N=C1N (stereo not shown) [Example 228]; 788 nM
CN1C(=O)C(c2ccc(OS(=O)(=O)C(F)(F)F)cc2)(c2ccc(F)c(-c3cc(Cl)ccn3)c2)N=C1N (stereo not shown) [Example 149]; 163 nM
CN1C(=O)C(c2cccc(OS(C)(=O)=O)c2)(c2cccc(C3=CCCC3)c2)N=C1N (stereo not shown) [Example 195, methanesulfonate hydrochloride]; 646 nM
CN1C(=O)C(c2ccc(OS(=O)(=O)C(F)(F)F)cc2)(c2ccc(F)c(-c3cccnc3F)c2)N=C1N (stereo not shown) [Example 142]; 140 nM

* * *

# MEASUREMENT TARGET: human β-Secretase (soluble part, AA1-AA460; sBACE-Fc) (Homo sapiens)
# Construct: The soluble part of the human β-Secretase (AA1-AA460) was cloned into the ASP2-Fc10-1-IRES-GFP-neoK mammalian expression vector; made in house
# MEASUREMENT PROTOCOL: TR-FRET assay
# Type: biochemical
# CONDITION SUMMARY: substrate (Europium)CEVNLDAEFK(Qsy7) 100 nM, pH 4.5, 15 min at RT; read-out: IC50 (nM) in TR-FRET assay
Structures can show the parent of a compound that is named as a salt.
log10 of IC50 values for the molecules below.
MEASURE NAME: log10 of IC50 (log10 of the value in nM)

CN1C(=O)C(c2ccc(OS(=O)(=O)C(F)(F)F)cc2)(c2ccc(F)c(-c3cncs3)c2)N=C1N (stereo not drawn) [Example 187, hydrochloride]; 2.66
Cc1cc(C2(c3ccc(F)c(-c4cc(Cl)cc(OS(C)(=O)=O)c4)c3)N=C(N)N(C)C2=O)ccn1 (stereo not drawn) [Example 307, methanesulfonate hydrochloride]; 2.02
COc1cc(OS(C)(=O)=O)cc(-c2cccc(C3(c4cc(C)nc(C)c4)N=C(N)N(C)C3=O)c2)c1 (stereo not drawn) [Example 305, methanesulfonate hydrochloride]; 2.00
CN1C(=O)C(c2ccc(OS(C)(=O)=O)cc2)(c2ccc(F)c(-c3cnccc3Cl)c2)N=C1N (stereo not drawn) [Example 169, methanesulfonate hydrochloride]; 2.23
CCCS(=O)(=O)Oc1cccc(C2(c3ccc(F)c(-c4cccc(OC)c4)c3)N=C(N)N(C)C2=O)c1 (stereo not drawn); 2.26
CCCN1C(=O)C(c2ccc(OS(C)(=O)=O)cc2)(c2ccc(F)c(-c3cncnc3)c2)N=C1N (stereo not drawn); 2.77
COc1cc(C#N)cc(-c2cc(C3(c4ccc(OS(C)(=O)=O)cc4)N=C(N)N(C)C3=O)ccc2F)c1 (stereo not drawn) [Example 71, methanesulfonate hydrochloride]; 1.61
CC(C)S(=O)(=O)Oc1cccc(C2(c3ccc(F)c(-c4cccnc4F)c3)N=C(N)N(C)C2=O)c1 (stereo not drawn); 2.27
CCCS(=O)(=O)Oc1cccc(C2(c3ccc(F)c(-c4cccc(Cl)c4)c3)N=C(N)N(C)C2=O)c1 (stereo not drawn); 2.38
CN1C(=O)C(c2cccc(OS(=O)(=O)c3ccc4c(c3)oc(=O)n4C)c2)(c2ccc(F)c(Br)c2)N=C1N (stereo not drawn); 2.48
COc1ccc(C(C)=O)c(-c2cc(C3(c4ccc(OS(C)(=O)=O)cc4)N=C(N)N(C)C3=O)ccc2F)c1 (stereo not drawn); 2.06
CN1C(=O)C(c2cccc(OS(C)(=O)=O)c2)(c2ccc(F)c(-c3cccc(Cl)c3)c2)N=C1N (stereo not drawn); 2.36
CCN1C(=O)C(c2ccc(OS(C)(=O)=O)cc2)(c2ccc(F)c(-c3cccc(Cl)c3)c2)N=C1N (stereo not drawn); 2.96
CN1C(=O)C(c2cccc(OS(=O)(=O)c3ccccn3)c2)(c2ccc(F)c(-c3cncnc3)c2)N=C1N (stereo not drawn); 2.09
COc1cc(OS(C)(=O)=O)cc(-c2cc(C3(c4ccc(OC(F)F)cc4)N=C(N)N(C)C3=O)ccc2F)c1 (stereo not drawn) [Example 69, methanesulfonate hydrochloride]; 1.36
CN1C(=O)C(c2cccc(OS(C)(=O)=O)c2)(c2ccc(F)c(-c3cccnc3F)c2)N=C1N (stereo not drawn); 2.37
CCN1C(=O)C(c2ccc(OS(C)(=O)=O)cc2)(c2ccc(F)c(-c3cncnc3)c2)N=C1N (stereo not drawn); 2.83
COc1cccc(-c2cc(C3(c4ccc(OS(C)(=O)=O)cc4)N=C(N)N(C)C3=O)ccn2)c1 (stereo not drawn); 2.56
CN1C(=O)C(c2cccc(OS(=O)(=O)c3cn(C)cn3)c2)(c2ccc(F)c(-c3cncnc3)c2)N=C1N (stereo not drawn); 1.41
CN1C(=O)C(c2ccc(OC(F)F)cc2)(c2ccc(F)c(-c3cc(C#N)cc(OS(C)(=O)=O)c3)c2)N=C1N (stereo not drawn) [Example 70, methanesulfonate hydrochloride]; 3.38
CN1C(=O)C(c2ccc(OS(=O)(=O)c3c(F)cccc3F)cc2)(c2ccc(F)c(-c3cncnc3)c2)N=C1N (stereo not drawn); 1.81
COc1cc(OS(C)(=O)=O)cc(-c2cc(C3(c4ccnc(C)c4)N=C(N)N(C)C3=O)ccc2F)c1 (stereo not drawn); 2.02
Cc1nn(C)c(Cl)c1S(=O)(=O)Oc1cccc(C2(c3ccc(F)c(-c4cncnc4)c3)N=C(N)N(C)C2=O)c1 (stereo not drawn); 1.30
CCC(C)(C)c1ccc(S(=O)(=O)Oc2ccc(C3(c4ccc(F)c(-c5cccnc5)c4)N=C(N)N(C)C3=O)cc2)cc1 (stereo not drawn); 1.90
COc1ccc(OC)c(S(=O)(=O)Oc2cccc(C3(c4ccc(F)c(-c5cncnc5)c4)N=C(N)N(C)C3=O)c2)c1 (stereo not drawn); 2.77
COc1ccnc(-c2cc(C3(c4ccc(OS(C)(=O)=O)cc4)N=C(N)N(C)C3=O)ccc2F)n1 (stereo not drawn); 2.92
CCc1ccc(C2(c3ccc(F)c(-c4cncnc4)c3)N=C(N)N(C)C2=O)cc1OS(C)(=O)=O (stereo not drawn); 1.98

* * *

# MEASUREMENT TARGET: human β-Secretase (soluble part, AA1-AA460; sBACE-Fc) (Homo sapiens, UniProt P56817)
# Construct: The soluble part of the human β-Secretase (AA1-AA460) was cloned into the ASP2-Fc10-1-IRES-GFP-neoK mammalian expression vector; made in house
# MEASUREMENT PROTOCOL: TR-FRET assay
# Type: biochemical
# CONDITION SUMMARY: substrate (Europium)CEVNLDAEFK(Qsy7) 100 nM, pH 4.5, 15 min at RT; read-out: IC50 (nM) in TR-FRET assay
Counter-ions that a name gives are not always drawn.
MEASURE NAME: IC50 (nM)

CN1C(=O)C(c2ccc(F)c(-c3cc(Cl)cc(OS(C)(=O)=O)c3)c2)(C2CCOCC2)N=C1N (stereo not shown) [Example 193, methanesulfonate hydrochloride]; 1180
COc1ccnc(-c2cc(C3(c4ccc(OS(C)(=O)=O)cc4)N=C(N)N(C)C3=O)ccc2F)c1 (stereo not shown) [Example 301]; 53
COc1ccc(F)c(-c2cncc(C3(c4ccc(OS(C)(=O)=O)cc4)N=C(N)N(C)C3=O)c2)c1 (stereo not shown) [Example 21]; 1910
CN1C(=O)C(c2ccc(OS(=O)(=O)C(F)(F)F)cc2)(c2ccc(F)c(-c3cccnc3)c2)N=C1N (stereo not shown) [Example 141]; 107
